Where do the numbers come from? From patent US12122761B2.

Parameter: pEC50. Scope: all listed entries.
tgt: human cloned CHRM4 receptor (M4_CHO cells) (Homo sapiens)
Construct: expressed in transfected cells; host or cells: CHO-K1
Sequence (P08173 1-479): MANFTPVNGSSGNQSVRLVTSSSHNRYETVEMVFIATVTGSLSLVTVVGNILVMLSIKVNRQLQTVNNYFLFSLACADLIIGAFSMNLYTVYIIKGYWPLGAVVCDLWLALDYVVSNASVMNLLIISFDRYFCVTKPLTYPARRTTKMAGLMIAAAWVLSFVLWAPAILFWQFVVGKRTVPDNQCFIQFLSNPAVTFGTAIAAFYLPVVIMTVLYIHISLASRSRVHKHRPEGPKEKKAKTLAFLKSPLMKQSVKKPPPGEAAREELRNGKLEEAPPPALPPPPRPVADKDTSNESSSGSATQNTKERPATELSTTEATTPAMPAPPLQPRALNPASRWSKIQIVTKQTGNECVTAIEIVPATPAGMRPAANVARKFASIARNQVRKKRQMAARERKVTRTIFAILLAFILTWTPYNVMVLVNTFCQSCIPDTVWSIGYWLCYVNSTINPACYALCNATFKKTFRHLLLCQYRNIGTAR
assay-comment: CHRM4 Ca++ Flux Assay (agonist mode, FDSS 7000EX)
Type: cell-based
study-conditions: geometric mean if tested more than once, read-out: M4 FDSS EC50
Schema: pEC50 number; meaning minus log10 of the concentration expressed in molar units.

These solved cases illustrate the format of a correct answer.
• COc1ccccc1C1CCN([C@@H]2CCC3(C2)CN(c2ncns2)C3)CC1 (single isomer, unassigned) [Example 10R] = 6.91
• COC(C)(C)CCOc1ccccc1C1CCN([C@@H]2CCC3(C2)CN(C(=O)C2(F)CC2)C3)CC1 (single isomer, unassigned) [Example 7FF] = 8.30
• CCOc1ccccc1C1CCN([C@@H]2CCC3(C2)CN(C(=O)C2COC2)C3)CC1 [Example 7J] = 8.22

Now examine the next entry.
Ask | Notebook: pull reported pEC50 for human cloned CHRM4 receptor (M4_CHO cells) (Homo sapiens), entry Fc1ccc(C2CCOCC2)c(C2CCN([C@@H]3CCC4(C3)CN(c3nnco3)C4)CC2)c1 [Example 2I]
Reply | 9.00
